tested on: PPARg DBDmut IVT, anti-PPARg (DBD mutation: PPARg1 K132A/R137A, NR concentration 270 nM); assay: PBM binding z-score (relative to random genomic background probes); higher = stronger binding; sequences stand for … in GC…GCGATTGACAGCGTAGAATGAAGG
Tag: fulfilled if measured PBM binding z-score is not below 0.2, not fulfilled if it is.

INSERT INTO results (sequencerecord, assignedcategory) VALUES
  ('TCGAGTAGGATAGTCGGGGCATTCAGCCAACATA', 'not fulfilled'),
  ('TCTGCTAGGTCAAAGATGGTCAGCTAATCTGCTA', 'fulfilled'),
  ('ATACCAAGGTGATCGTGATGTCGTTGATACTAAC', 'fulfilled'),
  ('ATCTCTAGGTAAAAGCTCAGTGAATCCCGAGGAT', 'fulfilled'),
  ('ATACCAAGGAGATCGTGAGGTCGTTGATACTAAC', 'not fulfilled'),
  ('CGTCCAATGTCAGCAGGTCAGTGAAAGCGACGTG', 'not fulfilled');

Lookup: I'd appreciate it if you could say whether CCTTACGGGTCAAGGTTATAGGACGGGTGGTACG has PBM binding z-score at least equal to 0.2.
Found: not fulfilled

Lookup: I'd appreciate it if you could say whether TCTTGTACATCAAAGGTTAAGAAAGCCGAAGCCT has PBM binding z-score at least equal to 0.2.
Found: fulfilled
